Tested on: SK-OV-3 ovarian
Assay: NCI-60 one-dose screen, 48 h
Settings: 10 µM unless noted
About 83,000 compounds went through this panel and 20% of them were active in at least one assay; those are over-represented in the sample as a whole. The source made the active and inactive calls. Rule for the calls: active = growth percent below 10; inactive = the rest.
One label from this list, please: active, inactive

Molecule	Tested System	Class
O=[N+]([O-])c1cccc(-c2nc3sccn3c2-c2ccnc(NCCNS(=O)(=O)c3ccc(C(F)(F)F)cc3)n2)c1	SK-OV-3 ovarian	inactive

State the result this test recorded for CC(=O)Nc1ccc2c(c1)c(NC(C)=O)nn2C(=O)Nc1ccc(Cc2ccccc2)cc1 . inactive

Next: CC1=C(C)C(=O)OC([C@](C)(O)[C@]2(O)CC[C@@]3(O)[C@@H]4C[C@H]5O[C@]56CC=CC(=O)[C@]6(C)[C@H]4CC[C@]23COC(=O)c2ccc(C)o2)C1 (stereo not given in full) active

Next: COc1nc2c(cc1S(=O)(=O)c1ccccc1)CCc1c-2cnn1-c1ccc(Cl)cc1 inactive

Next: O=C(COCc1c(-c2ccccc2)no[n+]1[O-])Nc1ccc(C(=O)/C=C/c2ccc3c(c2)OCO3)cc1 inactive

Next: CCN(CC)C12CCCCC1(C)C(C#N)(C#N)C(C#N)=C(N)O2 (stereo not given) inactive

====

For each entry below, report its growth value.
Test system: SK-MEL-5 melanoma
Test: NCI-60 one-dose screen, 48 h (100 = growth as untreated, 0 = no growth, -100 = all killed)
Conditions: 10 µM unless noted
The panel holds about 83,000 compounds, 20% with a hit somewhere; the sample as a whole holds those more often.
Numbers only, in %.

Compound	Tested System	Recorded Value
C=C1CC2(OC1=O)C(=O)N(CCCCCCCN1C(=O)C3(CC(=C)C(=O)O3)c3ccccc31)c1ccccc12 (configuration not stated)	SK-MEL-5 melanoma	61.3

Report growth for each item below.
1. O=C1C=CC(=O)N1c1ccc(Cc2ccc(N3C(=O)C=CC3=O)cc2)cc1
2. COc1ccc(/C=C2\N=C3SC=C(N)N3C2=O)cc1
3. CC1=C(NCCN2CCCC2)C(=O)c2c(OCc3cccc(Cl)c3)cccc2C1=O
4. CC1(C)OCC2OC3(C(=O)O)OC(C)(C)OC3C2O1 (configuration not stated)
5. Nc1cc2nc3ccccc3sc-2cc1=O

[96.3, 4.65, 67.1, 105, 31.3]

====

System: HCC-2998 colon
Assay: NCI-60 one-dose screen, 48 h (100 = growth as untreated, 0 = no growth, -100 = all killed)
Settings: 10 µM unless noted
About 83,000 compounds went through this panel and 20% of them were active in at least one assay; those are over-represented in the sample as a whole.
Property Measured: growth (%)
One number for each entry, in %.

Reference set, count: 4
O=S(=O)(Nc1ccc(F)c(Cl)c1)c1ccc(-c2cnc(C3CC3)o2)cc1 32
O=C1c2cccnc2C(=O)c2c1c(C(=O)OCCN1CCCCC1)c1ccccn21 -46.6
O=C1/C(=C/c2ccc(Cl)c(Cl)c2)CN(C(=O)CCN2CCC(=NO)CC2)C/C1=C\c1ccc(Cl)c(Cl)c1 -77.1
CCN(CC)CCCNc1cccc2c(SCc3ccccc3)ccnc12 25.4

Let us move to another entry and its growth.
Entry Cc1ccc2c(c1)C(=O)/C(=C/c1ccc(OCC(=O)c3ccccc3)cc1)O2 : reported growth = ? 125

====

Tested on: EKVX NSCLC
Test: NCI-60 one-dose screen, 48 h (100 = growth as untreated, 0 = no growth, -100 = all killed)
Details: 10 µM unless noted
About 83,000 compounds went through this panel and 20% of them were active in at least one assay; those are over-represented in the sample as a whole.
Property Measured: growth (%)
One number for each entry, in %.

Reference set, count: 5
Compound	Unit Of Measurement	Recorded Value
Cn1c2c(Cl)c(Cl)ccc2c2ccn3c(=O)c4ccccc4nc3c21	%	80.8
COc1ccccc1/C=C(/C(=O)c1ccccc1)c1ccccc1	%	109
COc1cc(OC)c(/C=C/C(=O)c2c(OC)cc(OC)cc2OC)c(OC)c1	%	38.2
COc1ccc(C2c3ccc4ccccc4c3Oc3ncnc(N)c32)cc1 (configuration not stated)	%	45.9
CC(=O)CC(C)(C)c1ccc(Cl)cc1	%	101

Report growth for each item below.
1. O=[N+]([O-])c1cccc(-c2nc3sccn3c2-c2ccnc(NCCCNS(=O)(=O)c3ccc(Br)cc3)n2)c1
2. CN(C)c1ccc(/C=C\C2=[N+](C)c3ccccc3C2(C)C)cc1
3. O=C(/C=C/c1cccc(Br)c1)c1ccccc1
4. C=C1CCC2C3(C)COC(c4ccc(OC)cc4Br)OC3CCC2(C)C1/C=C/C1=CCOC1=O (configuration not stated)

59.4
8.84
88
44.2

Report growth for each item below.
1. CCC(=O)Oc1ccc(/C(=C(\C)c2ccccc2)c2ccc(OCCN(CC)CC)cc2)cc1
2. CCN(CC)CC(C)Nc1ccc([N+](=O)[O-])c2sc3ccccc3c(=O)c12 (configuration not stated)
3. CC1=CC(=O)CC(C)(C)[C@@]1(O)/C=C/[C@@H](C)O
4. COc1ccc(CNc2nccnn2)cc1
5. CN(C)c1ccc(C2Nc3ccccc3-n3cccc32)cc1 (configuration not stated)
6. Nc1c(C(=O)Nc2cccc3c2OCCO3)sc2nc3c(cc12)C(=O)CCC3

103
34.5
91.6
99.1
87.8
24.7

Report growth for each item below.
1. O=C(CO[N+](=O)[O-])Nc1ccc(C(=O)/C=C/c2ccc3c(c2)OCO3)cc1
2. COc1ccc(CCN2CCCn3c2nc2ccccc2c3=O)cc1
3. Cc1cc(N/N=C/c2nc(-c3ccc(Cl)cc3)oc2C)c2cc(Br)ccc2n1
4. COc1nc2c(cc1S(=O)(=O)c1ccccc1)CCc1c-2cnn1Cc1ccccc1
5. CC(C)n1cc2c(N)ncnc2n1
6. CC/C(Cc1ccccc1)=C(/c1ccc(O)cc1)c1ccc(OCCN2CCCC2)cc1
7. O=C(/C=C/c1cc2ccccc2[nH]c1=O)/C=C/c1cc2ccccc2[nH]c1=O

99.7
45.7
86.4
36.1
88.1
-21.4
47.3

====

Test system: COLO 205 colon
Experiment: NCI-60 one-dose screen, 48 h
Conditions: 10 µM unless noted
This is part of a sample that, as a whole, favours compounds with a hit. Of some 83,000 tested, about 20% had one in any assay. Calls of active or inactive are those of the source. Rule for the calls: active = growth percent below 10; inactive = the rest.
One label from this list, please: active, inactive

Brc1cccc(-c2nc(-c3ccc4c(c3)OCCO4)co2)c1 inactive

State the result this test recorded for Cc1ccc(Nc2nc(N)nc(Nc3ccc4ccccc4c3)n2)cc1 . inactive

Next: C[C@@H]1CC[C@@H]2[C@@H]1[C@H](OC(=O)/C=C/c1ccccc1)[C@]1(C3CCCCC3)C[C@@H](OC(=O)CO)[C@@]2(C)O1 inactive

Next: Cc1ccc(N)cc1F inactive

Next: COc1cc(-c2cc(-c3nc4ccc(Cl)cc4[nH]3)[nH]n2)cc(OC)c1OC inactive

Next: COc1cnc2c(c1)C(=O)c1c-2n(CCCN2CCN(C)CC2)c(=O)c2cc([N+](=O)[O-])ccc12 active

Next: COc1ccc(-c2c3c(nc4n[nH]c(-c5ccc(Cl)cc5)c24)-c2ccccc2C(=O)C3=O)cc1 inactive

Next: CCOC(=O)CC(C)=N inactive

Next: CCOC(=S)SCc1ccc(Cl)cc1 inactive

Next: CC(C)C1=C[C@@]23CC[C@@H]4[C@](C)(CCC[C@@]4(C)C(=O)OCC#CCN4CCCC4)[C@H]2C[C@@H]1[C@H]1C(=O)OC(=O)[C@H]13 inactive

====

Test system: 786-0 renal
Assay: NCI-60 one-dose screen, 48 h (100 = growth as untreated, 0 = no growth, -100 = all killed)
Settings: 10 µM unless noted
This is part of a sample that, as a whole, favours compounds with a hit. Of some 83,000 tested, about 20% had one in any assay. Active and inactive are the calls of the source. How the source made its calls: active means growth percent below 10; inactive means the rest.
For each entry below, report its growth value.

Compound	Tested System	Property Measured	Recorded Value
COc1ccc(/C=C/C(=O)c2ccc(NC(=O)c3cc4cc5ccccc5nc4s3)cc2)cc1OC	786-0 renal	growth	106% (inactive)
COc1ccccc1-c1ccc2c(N)c(C(=O)c3ccc4c(c3)OCO4)sc2n1	786-0 renal	growth	86% (inactive)
c1ccc(CSc2ncnc3nc[nH]c23)nc1	786-0 renal	growth	92.4% (inactive)
CCN(CC)CCCCNc1ccc(NCCCCN(CC)CC)c2c1C(=O)c1ccccc1C2=O	786-0 renal	growth	82% (inactive)
Nc1ccc2c(c1)C(=O)NC2=O	786-0 renal	growth	110% (inactive)

Report growth for each item below.
1. Cc1ccc(Nc2nc(N)nc(Nc3ccc4ccccc4c3)n2)cc1
2. CCN(CC)CC#CCOC(=O)[C@]1(C)CCC[C@@]2(C)[C@H]1CC(C=O)=C1C=C(C(C)C)CC[C@@H]12
3. COCCOc1ccc(-c2nc3ccc(-c4nc5ccc(N6CCN(C)CC6)cc5[nH]4)cc3[nH]2)cc1
4. CC[C@]12C=CCN3CC[C@@]4(c5ccc(OC)cc5N(C)[C@H]4[C@@](O)(C(=O)OC)[C@@H]1OC(=O)CCC(=O)N[C@@H](Cc1c[nH]c4ccccc14)C(=O)OC)[C@@H]32
5. COc1cc(C2CC(=O)c3c(C)nn(-c4nc5ccccc5[nH]4)c3C2)cc(OC)c1OC (stereo not given)
6. CCCCCCCCCCCCCC(=O)C(C)N (stereo not given)
7. C[C@@H]1CC[C@@H]2[C@@H]1[C@H](OC(=O)/C=C/c1ccccc1)[C@]1(C3CCCCC3)C[C@@H](OC(=O)CO)[C@@]2(C)O1
8. COc1cccc(/C=C\C(=O)c2ccccc2)c1

46.6% (inactive)
58.3% (inactive)
26.8% (inactive)
91.5% (inactive)
23.8% (inactive)
71.3% (inactive)
73.2% (inactive)
74.4% (inactive)

Report growth for each item below.
1. CCN(CC)CCCNc1cc(OC)cc2nc3cc(Cl)ccc3nc12
2. CC/C=C\C[C@H](F)C/C=C1/C(=O)C=C[C@@H]1C/C=C\CCCC(=O)OC
3. CCC(=O)OCc1cccc(OC)c1
4. COc1ccc(S(=O)(=O)NCCCNc2nccc(-c3c(-c4cccc(N)c4)nc4sccn34)n2)cc1

["2.95% (active)", "5.15% (active)", "102% (inactive)", "92.1% (inactive)"]

All values here come from PubChem BioAssay (NCI).
